Parameter viability at 24 h, 1 µM: see the listing below.
- Assay Protocol: Cytotoxicity against mouse RAW264.7 cells assessed as cell viability at 1 uM incubated for 24 hrs by CCK8 assay relative to control
- Type: toxicity, cell-based
- Applied Conditions: read-out: Activity
Express the result in % but write the number alone.

Chemical Structure | viability at 24 h, 1 µM [%]
O=C(/C=C/c1c(Cl)c(O)c(O)c(O)c1Cl)c1ccc(Cl)cc1Cl | 81
CC(=O)Oc1c(Cl)c(/C=C/C(=O)c2ccc(F)cc2)c(Cl)c(OC(C)=O)c1OC(C)=O | 93.8
O=C(/C=C/c1c(Cl)c(O)c(O)c(O)c1Cl)c1ccco1 | 82
Oc1cc(CCCc2ccc(F)cc2)cc(O)c1O | 94
O=C(/C=C/c1c(Cl)c(O)c(O)c(O)c1Cl)c1c(Cl)cc(F)cc1Cl | 100

Next, consider the following compound.
Query :: Need viability at 24 h, 1 µM of `O=C(/C=C/c1c(Cl)c(O)c(O)c(O)c1Cl)c1ccc([N+](=O)[O-])cc1` , thanks.
Result :: 115

----------
Catalogue of inhibition readings, one per entry.
- Target Or System: Replicase polyprotein 1ab (Severe acute respiratory syndrome coronavirus 2)
- Assay Protocol: Inhibition of SARS-CoV-2 3CLPro using DabcylKNSTLQSGLRK-Edans as substrate at 5 uM preincubated for 30 mins followed by substrate addition measured after 20 mins by FRET assay relative to control
- Applied Conditions: time 50.0 min
Numbers only; they are read as %.

Query :: Param item = `O=C(/C=C/c1c(Cl)c(O)c(O)c(O)c1Cl)c1ccc(Cl)cc1Cl` ; retrieve measured inhibition.
Result :: 0.6

Query :: Fill in the blank: the reported inhibition of `O=C(/C=C/c1c(Cl)c(O)c(O)c(O)c1Cl)c1cccs1` is ____.
Result :: -1.8

Query :: Bench note: what inhibition did `O=C(/C=C/c1c(Cl)c(O)c(O)c(O)c1Cl)c1ccc(F)cc1` show?
Result :: 0.8

----------
viability at 24 h, 1 µM: recorded values
- Assay Protocol: Cytotoxicity against mouse RAW264.7 cells assessed as cell viability at 1 uM incubated for 24 hrs by CCK8 assay relative to control
- Assay type: toxicity, cell-based
- Applied Conditions: read-out: Activity
The reply should be a number in %, with the unit left off.

Chemical Structure | Units | viability at 24 h, 1 µM
O=C(O)CCc1c(Cl)c(O)c(O)c(O)c1Cl | % | 130
O=C(/C=C/c1c(Cl)c(O)c(O)c(O)c1Cl)c1c(Cl)cc(Cl)cc1Cl | % | 78.7
O=C(O)/C=C/c1c(Cl)c(O)c(O)c(O)c1Br | % | 93.6

Now look at this entry.
Query :: Need viability at 24 h, 1 µM, item `O=C(/C=C/c1c(Cl)c(O)c(O)c(O)c1Cl)c1ccccc1F`
Result :: 89

----------
- Assay Protocol: Cytotoxicity against human Huh-7 cells harboring viral replicon/EGFP/Neo genes assessed as cell viability at 50 uM incubated for 24 hrs by Cell Titer Glo assay relative to control
- Type: toxicity, cell-based
- Applied Conditions: read-out: Activity
Attribute: viability at 24 h, 50 µM
Give just the number in %; leave the unit off.

In the examples that follow, each entry is paired with its recorded viability at 24 h, 50 µM.
Chemical Structure | Units | viability at 24 h, 50 µM
O=C(/C=C/c1c(Cl)c(O)c(O)c(O)c1Cl)c1ccc(F)cc1 | % | 50
O=C(/C=C/c1c(Cl)c(O)c(O)c(O)c1Cl)c1ccccc1 | % | 64.2
O=C(CCc1cc(O)c(O)c(O)c1)c1ccc(F)cc1 | % | 92.7
O=C(/C=C/c1c(Cl)c(O)c(O)c(O)c1Cl)c1ccco1 | % | 70.7
CC(=O)Oc1c(Cl)c(/C=C/C(=O)c2ccc(F)cc2)c(Cl)c(OC(C)=O)c1OC(C)=O | % | 62

Query :: Value lookup for viability at 24 h, 50 µM; key = `O=C(/C=C/c1c(Cl)c(O)c(O)c(O)c1Cl)c1ccc(-c2ccc(F)cc2)cc1`
Result :: 10.2

Query :: Entry under review: `O=C(/C=C/c1c(Cl)c(O)c(O)c(O)c1Cl)c1ccc([N+](=O)[O-])cc1` . Reported viability at 24 h, 50 µM?
Result :: 74.7

Query :: Request the reported viability at 24 h, 50 µM associated with `O=C(/C=C/c1c(Cl)c(O)c(O)c(O)c1Cl)c1c(Cl)c(O)c(O)c(O)c1Cl`
Result :: 99.3

Query :: Can you look up the measured viability at 24 h, 50 µM of `O=C(/C=C/c1c(Cl)c(O)c(O)c(O)c1Cl)c1ccc(O)cc1` for me?
Result :: 87.9

Query :: What measured viability at 24 h, 50 µM goes with `O=C(/C=C/c1cc(O)c(O)c(O)c1)c1ccc(F)cc1` ?
Result :: 63.4
